# credit: BindingDB's records for patent US20250282798

target: Mitogen-activated protein kinase kinase kinase kinase 1 (Homo sapiens); assay: Kinase Activity Assay
Sequence (Q92918 whole entry): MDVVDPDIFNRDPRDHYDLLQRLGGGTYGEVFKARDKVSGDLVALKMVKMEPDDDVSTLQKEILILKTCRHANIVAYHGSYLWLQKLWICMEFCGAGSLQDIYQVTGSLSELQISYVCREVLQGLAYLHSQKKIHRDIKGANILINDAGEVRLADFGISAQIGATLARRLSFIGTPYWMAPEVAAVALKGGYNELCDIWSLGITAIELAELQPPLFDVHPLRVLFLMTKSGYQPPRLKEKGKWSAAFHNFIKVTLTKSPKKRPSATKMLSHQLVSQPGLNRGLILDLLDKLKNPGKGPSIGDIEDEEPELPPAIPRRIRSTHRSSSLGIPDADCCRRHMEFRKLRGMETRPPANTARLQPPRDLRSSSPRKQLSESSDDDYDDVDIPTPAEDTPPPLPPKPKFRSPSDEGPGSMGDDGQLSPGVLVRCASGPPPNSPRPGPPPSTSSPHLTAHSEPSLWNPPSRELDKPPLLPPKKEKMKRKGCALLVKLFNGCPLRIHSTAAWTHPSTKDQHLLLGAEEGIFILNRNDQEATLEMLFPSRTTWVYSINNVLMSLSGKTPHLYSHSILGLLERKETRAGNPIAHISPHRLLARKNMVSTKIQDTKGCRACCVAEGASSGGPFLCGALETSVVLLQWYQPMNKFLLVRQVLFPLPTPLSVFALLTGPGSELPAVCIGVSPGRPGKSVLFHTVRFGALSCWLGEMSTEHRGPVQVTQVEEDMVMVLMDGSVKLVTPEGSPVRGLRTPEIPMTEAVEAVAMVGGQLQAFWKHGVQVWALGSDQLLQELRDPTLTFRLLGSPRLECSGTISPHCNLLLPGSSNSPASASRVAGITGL
pIC50: −log10 of the molar value.
measured-quantity: pIC50

Consider the reported pIC50 for these compounds:
{"columns": ["compound", "pIC50"],
 "data": [
  ["CN1Cc2nc(Nc3ccc(-c4ccnc5c4ccn5C)c4c3C(=O)NC4)ccc2N2CCOCC2C1 (configuration not stated) [US20250282798, Compound 25]", 9.70],
  ["O=C1NCc2c(-c3cnc4cc(F)ccn34)ccc(Nc3ccc4c(n3)CNC(=O)C3COCC43)c21 (configuration not stated) [US20250282798, Compound 18]", 9.70],
  ["CN1Cc2nc(Nc3ccc(-c4cnc5cc(F)ccn45)c4c3C(=O)NC4)ccc2C2COCC2C1 (configuration not stated) [US20250282798, Compound 17]", 8.89]
]}

P. COc1cccc(F)c1-c1ccc(Nc2ccc(N3CCOCC3)c(CN(C)C)n2)c2c1CNC2=O [US20250282798, Compound 15]
Q. Cn1ccc2c(-c3ccc(Nc4ccc5c(n4)CNC(=O)C4COCC54)c4c3CNC4=O)ccnc21 (configuration not stated) [US20250282798, Compound 23]
R. Cn1ccc2c(-c3ncc(Nc4ccc5c(n4)OC[C@H]4COCCN54)c4c3CNC4=O)ccnc21 [US20250282798, Compound 20]
S. CN1Cc2nc(Nc3ccc(-c4cnc5cc(F)ccn45)c4c3C(=O)NC4)ccc2N2CCOCC2C1 (configuration not stated) [US20250282798, Compound 16]
[ask] // ranking: key=pIC50, reverse=True List each label, following the requested order.
[reply] Q, R, S, P
